Test system: SgK110
Details: concentration: 1 μM, replicates: in singlicate; n = 1;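 also: KINOMEscan kinase panel screen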
ENDPOINT_LABEL: %Inh (%)
Only the number, expressed in %, is required.

Task: Please list %Inh recorded for the molecule COc1cc(Nc2nccc(-c3c(-c4cccc(NC(=O)c5c(F)cccc5F)c4)nn4ccccc34)n2)cc(OC)c1OC [GSK323521]
Output: 0

Task: Report measured %Inh; entry is COc1cc(Nc2nccc(N3CCC(NC(=O)c4cc5ccccc5s4)C3)n2)cc(OC)c1OC (centres unmarked) [GSK1379760]
Output: 0

Task: State its %Inh for this molecule: Cc1ccc(C(=O)Nc2ccc(Nc3ccnc4cc(-c5nccs5)ccc34)cc2O)cc1.Cl [GW494702]
Output: 15

Task: State, in one line, measured %Inh of CSc1cccc2c(-c3ccncn3)c(-c3ccc(F)cc3)nn12 [GW514786]
Output: 0

Task: Supply reported %Inh belonging to this molecule: CCCCc1nn2ncccc2c1-c1ccnc(Nc2ccc(N3CCN(C)CC3)cc2)n1 [GW684941]
Output: 10

Task: Tell us which %Inh value is on record for Cl.Cl.NCC(C(=O)Nc1cc(Br)c(-c2ccnc3[nH]ccc23)s1)c1ccccc1 (centres unmarked) [GSK1269851]
Output: 0

Task: Determine its reported %Inh: COc1cc2c(cc1OCCN1CCNCC1)ncc1c3ccc(C#N)cc3[nH]c21
Output: 0

Task: Return %Inh (reported value) for this molecule: C[C@@H]1CC[C@@H](C(=O)Nc2ccccc2)CN1c1cc(-c2ccc3c(N)n[nH]c3c2)nc(N)n1 [GSK2286062]
Output: 0

---

System: MAP3K4
Conditions: concentration: 1 μM, replicates: in singlicate; n = 1
ENDPOINT_LABEL: %Inh (%)
Numeric only. Scale: %

Task: Report %Inh for CCS(=O)(=O)c1ccc(OC)c(Nc2nccc(-c3c(-c4cccc(NC(=O)c5c(F)cccc5F)c4)nn4ncccc34)n2)c1 [GSK326180]
Output: 7

Task: State, in one line, measured %Inh of CN(C)S(=O)(=O)c1cc(-c2ccc3nccc(-c4cccc(S(N)(=O)=O)c4)c3c2)cnc1N [GSK1669921]
Output: 0

Task: Identify %Inh associated with the compound CCc1ccc(-c2ccc3c(c2)-c2c(cnn2C)S(=O)(=O)N3C)cc1
Output: 23

Task: Please report %Inh for the following compound: Cc1ccc(S(=O)(=O)Nc2ccc(Nc3nccc(Nc4cccc5[nH]ncc45)n3)cc2)cc1 [GSK581271]
Output: 7

Task: Tell me %Inh reported for COc1cc(Nc2nccc(N3CCC(NC(=O)Nc4cccc(C(C)=O)c4)C3)n2)cc(OC)c1OC (stereo not shown) [GSK1379753]
Output: 0

Task: State, in one line, measured %Inh of C[C@@H](Oc1cc(-n2cnc3cc(-c4ccnc(NCCS(C)(=O)=O)c4)ccc32)sc1C(N)=O)c1ccccc1Cl [GSK907232]
Output: 35

Task: Answer with the recorded %Inh for the compound listed here: COC(=O)Nc1nc2ccc(Oc3ccc(NC(=O)Nc4cc(C(F)(F)F)ccc4F)cc3)cc2n1C.Cl [GW692089]
Output: 0

Task: Annotate the compound Nc1n[nH]c2cnc(-c3ccccc3)cc12 [SB-642124] with its measured %Inh.
Output: 23

Task: Name the recorded %Inh of the compound listed here: NCCCC(NC(=O)c1cc(Br)c(-c2ccnc3[nH]ccc23)s1)c1ccccc1.O=C(O)C(F)(F)F.O=C(O)C(F)(F)F (stereo not shown) [GSK1287544]
Output: 9

Task: Hello, please tell me recorded %Inh for this one: CN1CCN(Cc2cccc(-c3ccc4c(Nc5ccc(Oc6ccccc6)cc5)ccnc4c3)c2)CC1 [GW578342]
Output: 15

Task: Answer with the recorded %Inh of c1ccc(Oc2ccc(Nc3ccnc4cc(-c5ccc(CNCCN6CCOCC6)o5)ccc34)cc2)nc1 [GW567145] only.
Output: 0

Task: Using known records, supply %Inh for Cc1ccc(F)c(C(=O)Nc2cccc(-c3nn4ccccc4c3-c3ccnc(Nc4cccc(F)c4)n3)c2)c1F [GSK361061]
Output: 44

Task: Specify %Inh for COc1ccc(-c2coc3ccc(-c4nnc(SCc5ccc(OC)c(C(F)(F)F)c5)o4)cc23)cc1 and stop.
Output: 0

Task: Identify measured %Inh associated with O=C(Nc1ccccc1F)NC1CCN(c2ccnc(Nc3ccc(F)cc3)n2)CC1 [GSK1379800]
Output: 0

Task: Identify measured %Inh corresponding to COc1cc2c(cc1OCCN1CCNCC1)ncc1c3ccc(C#N)cc3[nH]c21
Output: 7

Task: Tell me measured %Inh for CSc1cccc2c(-c3ccncn3)c(-c3ccc(F)cc3)nn12 [GW514786] please.
Output: 0
